Test: Tissue, plasma and GI content pharmacokinetics of tacrolimus, oral vs intra-cecal ingestible device delivery (Example 10)
Format: in vivo, Yorkshire-Cross farm swine
Conditions: female, Yorkshire-Cross, pig, in vivo, 0.09 mg/kg; Route PO; Dose (mg · kg) 0.09
Procedure: The primary objective of this study was to compare the tissue, plasma, rectal sample, and GI content pharmacokinetics of tacrolimus through oral versus intra-cecal ingestible device delivery in normal Yorkshire-Cross farm swine. […] For tissue necropsy, small intestine fluid and cecal fluid were collected separately from all the animals into two separate square plastic bottles, and stored at −20° C. […] All samples were weighed, and the tissue sample weights were recorded. […]
Quantity Kind: Cmax (ng/mL)
Give the value in ng/mL but do not write ng/mL after it.

Ask | Requested read-out: Cmax. Entry: C=CC[C@@H]1/C=C(\C)C[C@H](C)C[C@H](OC)[C@H]2O[C@@](O)(C(=O)C(=O)N3CCCC[C@H]3C(=O)O[C@H](/C(C)=C/[C@@H]3CC[C@@H](O)[C@H](OC)C3)[C@H](C)[C@@H](O)CC1=O)[C@H](C)C[C@@H]2OC [tacrolimus]
Reply | 3.53
